Target Desc: MAO-A (Homo sapiens)
Construct: gene MAOA; FAD enzyme; PDB 2Z5X was only the docking model
Sequence (P21397 whole entry): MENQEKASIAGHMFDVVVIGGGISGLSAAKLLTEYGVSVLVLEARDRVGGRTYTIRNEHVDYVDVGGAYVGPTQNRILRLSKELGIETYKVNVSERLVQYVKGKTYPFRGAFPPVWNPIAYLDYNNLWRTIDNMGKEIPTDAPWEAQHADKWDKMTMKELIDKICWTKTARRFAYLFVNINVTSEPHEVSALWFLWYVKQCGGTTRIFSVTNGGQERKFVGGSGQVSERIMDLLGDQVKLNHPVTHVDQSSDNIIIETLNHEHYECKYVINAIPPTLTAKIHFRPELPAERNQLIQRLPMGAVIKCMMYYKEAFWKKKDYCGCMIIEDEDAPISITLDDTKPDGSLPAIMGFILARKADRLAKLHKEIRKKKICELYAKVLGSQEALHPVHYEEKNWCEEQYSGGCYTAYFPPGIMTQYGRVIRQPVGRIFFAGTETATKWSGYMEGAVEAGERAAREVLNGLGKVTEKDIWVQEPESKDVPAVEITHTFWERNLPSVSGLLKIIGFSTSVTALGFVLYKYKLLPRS
Measurement Notes: UV/Vis, 4-hydroxyquinoline formation at […] nm
Format: biochemical
Measurement Label: pIC50
A value of pIC50 is the negative decimal logarithm of a concentration given in moles per litre.

Ask: Provide one value: measured pIC50 of COC(=O)C(NC(=O)c1cn(CCCCCF)c2ccccc12)C(C)(C)C (stereo not shown)
Reply: 4.11

---

Target Desc: MAO-B (Homo sapiens, UniProt P27338)
Construct: gene MAOB; FAD enzyme; PDB 2V5Z was only the docking model
Sequence (P27338 2-520): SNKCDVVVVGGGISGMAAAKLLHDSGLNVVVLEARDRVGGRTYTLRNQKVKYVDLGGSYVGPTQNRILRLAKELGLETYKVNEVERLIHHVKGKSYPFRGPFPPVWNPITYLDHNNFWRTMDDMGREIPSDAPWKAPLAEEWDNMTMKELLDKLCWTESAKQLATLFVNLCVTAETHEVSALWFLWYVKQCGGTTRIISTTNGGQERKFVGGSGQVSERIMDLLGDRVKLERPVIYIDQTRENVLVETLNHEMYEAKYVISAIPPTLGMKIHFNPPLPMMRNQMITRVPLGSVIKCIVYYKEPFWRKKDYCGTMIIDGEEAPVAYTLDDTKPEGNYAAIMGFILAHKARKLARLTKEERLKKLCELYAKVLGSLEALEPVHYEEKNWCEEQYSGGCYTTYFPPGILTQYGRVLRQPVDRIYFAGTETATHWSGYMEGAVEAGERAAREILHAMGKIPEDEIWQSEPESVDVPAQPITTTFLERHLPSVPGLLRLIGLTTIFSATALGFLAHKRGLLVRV
Measurement Notes: UV/Vis, benzaldehyde formation at […] nm
Type: biochemical
Kindly supply the reported IC50 values for the records listed here.
Write the value in µM as a bare number.

Ask: Provide one value: measured IC50 of CCCCCn1ccc2ccccc21
Reply: 630

Ask: Provide one value: measured IC50 of CCCCCn1ncc2ccccc21
Reply: 540

Ask: Provide one value: measured IC50 of FCCCCCn1ccc2ccccc21
Reply: 650

Ask: Provide one value: measured IC50 of Cn1ccc2ccccc21
Reply: 500

Ask: Provide one value: measured IC50 of FCCCCCn1ncc2ccccc21
Reply: 620
